- Test system: MDA-MB-435
- assayRemarks: NCI tumour cell line growth inhibition, 48 h
measurementType: TGI (µM)

[[record]]
chemicalsmiles = "Cc1cc(OCC(=O)N/N=C/C(Br)=C/c2ccccc2)nc(SCC(=O)N/N=C/C(Br)=C/c2ccccc2)n1"
measurementtype = "TGI"
prefixoperator = ">"
observedvalue = 100

[[record]]
chemicalsmiles = "COC(=O)[C@@H]1C[C@@H]2c3ccccc3N(S(=O)(=O)c3ccccc3)[C@@H]2N1C(=O)OC"
measurementtype = "TGI"
prefixoperator = ">"
observedvalue = 100

[[record]]
chemicalsmiles = "C=C1C(=O)O[C@H]2[C@H]1CC(=O)/C(C)=C/CC[C@@]1(C)O[C@@H]21"
measurementtype = "TGI"
prefixoperator = "="
observedvalue = 5.43

[[record]]
chemicalsmiles = "C#Cc1cccc(Nc2nc3ccc([N+](=O)[O-])cc3nc2Nc2cccc(C#C)c2)c1"
measurementtype = "TGI"
prefixoperator = "="
observedvalue = 0.838


----------
- System: HCT-116 colon
- assayRemarks: NCI tumour cell line growth inhibition, 48 h
Parameter: TGI. Scope: all listed entries.
measurementType: TGI

[[record]]
compound = "CCCCCCCC(=O)SCC/C=C/[C@@H]1CC(=O)NCc2nc(co2)C2=N[C@@](C)(CS2)C(=O)N[C@@H](C(C)C)C(=O)O1"
testedtarget = "HCT-116 colon"
measurementtype = "TGI"
observedvalue = "1.14 µM"

[[record]]
compound = "CCc1c(Cc2cc(C)cc(C)c2)n2c(nc1=O)SCC2CBr (stereo unspecified)"
testedtarget = "HCT-116 colon"
measurementtype = "TGI"
observedvalue = "> 50 µM"

[[record]]
compound = "Cc1nc2n(c(=O)c1CCN1CCC(c3noc4cc(F)ccc34)CC1)CCCC2"
testedtarget = "HCT-116 colon"
measurementtype = "TGI"
observedvalue = "> 50 µM"

[[record]]
compound = "NC(=Nc1ccc(O)cc1)S(=O)O"
testedtarget = "HCT-116 colon"
measurementtype = "TGI"
observedvalue = "> 100 µM"

[[record]]
compound = "C=CCNC1=C2C[C@@H](C)C[C@@H](OC)[C@H](OC(=O)CN)[C@H](C)/C=C(\\C)[C@@H](OC(N)=O)[C@H](OC)/C=C\\C=C(/C)C(=O)NC(=CC1=O)C2=O"
testedtarget = "HCT-116 colon"
measurementtype = "TGI"
observedvalue = "14.4 µM"

[[record]]
compound = "CN(C)c1n/c(=N/c2ncn[nH]2)ss1"
testedtarget = "HCT-116 colon"
measurementtype = "TGI"
observedvalue = "> 100 µM"

[[record]]
compound = "CC(C)C1OC(/C=C/c2ccccc2)OCC1(C)C (stereo unspecified)"
testedtarget = "HCT-116 colon"
measurementtype = "TGI"
observedvalue = "92 µM"

[[record]]
compound = "O=C1CCc2c(sc3[nH]c(=S)n(Cc4ccccc4)c(=O)c23)C1"
testedtarget = "HCT-116 colon"
measurementtype = "TGI"
observedvalue = "> 100 µM"

[[record]]
compound = "Cn1ncnc1CCc1ccccc1"
testedtarget = "HCT-116 colon"
measurementtype = "TGI"
observedvalue = "> 100 µM"

[[record]]
compound = "COc1ccc2c(c1)[n+](=O)c(C(=O)/C=C/c1cc(OC)c(OC)c(OC)c1)c(C)n2[O-]"
testedtarget = "HCT-116 colon"
measurementtype = "TGI"
observedvalue = "65.5 µM"

[[record]]
compound = "Cc1ccc2[nH]c3c(ncc4[nH]c5ccccc5c43)c2c1"
testedtarget = "HCT-116 colon"
measurementtype = "TGI"
observedvalue = "30.8 µM"

[[record]]
compound = "COC(=O)c1ccc(Cc2ccc(C(=O)OC)o2)o1"
testedtarget = "HCT-116 colon"
measurementtype = "TGI"
observedvalue = "> 378 µM"

[[record]]
compound = "C=CC(C)CCC(C/C=C(\\C)CCC=C(C)C)C(=C)CCCC(C)C (stereo unspecified)"
testedtarget = "HCT-116 colon"
measurementtype = "TGI"
observedvalue = "> 100 µM"

[[record]]
compound = "CCC1CCc2nc3sc(C(=O)Nc4ccccc4C)c(N)c3cc2C1 (stereo unspecified)"
testedtarget = "HCT-116 colon"
measurementtype = "TGI"
observedvalue = "> 100 µM"

[[record]]
compound = "C=C1C(=O)O[C@H]2[C@H]1CC/C(COC(=O)c1ccc(C#N)cc1)=C\\CC[C@@]1(C)O[C@@H]21"
testedtarget = "HCT-116 colon"
measurementtype = "TGI"
observedvalue = "2.77 µM"

[[record]]
compound = "COc1cc(-c2cc(=O)c3cc(C)c(C)c(C(=O)O)c3o2)cc(OC)c1OC"
testedtarget = "HCT-116 colon"
measurementtype = "TGI"
observedvalue = "> 100 µM"

[[record]]
compound = "NC(CCOCCP(=O)(O)CCOCCC(N)C(=O)O)C(=O)O (stereo unspecified)"
testedtarget = "HCT-116 colon"
measurementtype = "TGI"
observedvalue = "> 100 µM"

[[record]]
compound = "Nc1nc(N)c2nc(CNc3ccc(C(=O)NC(CCCNC(=O)c4ccccc4C(=O)O)C(=O)O)cc3)cnc2n1 (stereo unspecified)"
testedtarget = "HCT-116 colon"
measurementtype = "TGI"
observedvalue = "> 100 µM"

[[record]]
compound = "CCCCCCCCCCCCN(O)C(=O)c1ccccc1"
testedtarget = "HCT-116 colon"
measurementtype = "TGI"
observedvalue = "> 100 µM"

[[record]]
compound = "O=C(O)C12CCCC(CCC1)C2"
testedtarget = "HCT-116 colon"
measurementtype = "TGI"
observedvalue = "> 100 µM"

[[record]]
compound = "O=C(c1ccc(Br)cc1)n1c2ccc(Br)cc2c2nc3ccccc3nc21"
testedtarget = "HCT-116 colon"
measurementtype = "TGI"
observedvalue = "> 100 µM"


Reference source: PubChem BioAssay (NCI)
